Assay: chemical genetic growth profiling, strain panel (AID 1159580);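 note: tested at 20 µM; growth read once vehicle control cultures reached saturation at 30 °C; 1 = growth at the plate median or of vehicle wells; lower values mean less growth of the strain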
Details: S. cerevisiae deletion strains, growth OD, locus YHR200W, strain rpn10, active compounds read low
Out of some 5,500 compounds screened, about 2,000 (36%) were called active. Another 18% or so got no clear call; they are omitted. This is one part of the list.
We begin with a simple list: items and their reported normalized growth.

Below: 5 compounds and their reported normalized growth.
- COMPOUND: "CC1CC2C(C(O)CC3(C)C2CCC3(O)C(=O)COC(=O)CCC(=O)O)C2(C)C=CC(=O)C=C12 (stereo not drawn)"
  normalized growth: "0.987 (inactive)"
- COMPOUND: "C[C@@]12C(=O)OC(=O)[C@]1(C)C1CCC2O1"
  normalized growth: "0.82 (active)"
- COMPOUND: "CC(=O)O[C@H]1C[C@@H](OC(C)=O)C(C)(C)C2C[C@@H](OC(C)=O)[C@]3(C)C(CC[C@@]4(C)[C@H](c5ccoc5)C(=O)[C@H]5O[C@]543)[C@]21C (stereo partly drawn)"
  normalized growth: "1.02 (inactive)"
- COMPOUND: "Nc1nccs1"
  normalized growth: "0.984 (inactive)"
- COMPOUND: "O=c1ccn([C@@H]2O[C@H](COP(=O)(O)OP(=O)(O)OP(=O)(O)O)[C@@H](O)[C@H]2O)c(=O)[nH]1"
  normalized growth: "1 (inactive)"

**Query** Form field: reported normalized growth of "Nc1ccc(S(=O)(=O)Nc2nccs2)cc1"
**Result** 1 (inactive)

**Query** # lookup: normalized growth of CC[C@@H]1[C@@H](O)N2C3C[C@H]1C1C(O)[C@]4(C[C@@H]12)c1ccccc1N(C)[C@@H]34 (stereo partly drawn)
**Result** 0.981 (inactive)

**Query** Data request, read-out normalized growth, for "O=C(/C=C/c1ccc(O)c(O)c1)O[C@@H]1C[C@](O)(C(=O)O)C[C@@H](O)[C@H]1O"
**Result** 1.02 (inactive)
